# TARGET UNDER TEST: T1, human isoleucine zipper-CD40L (IZ-hCD40L) (human, UniProt P29965 113-261)
# T1 sequence: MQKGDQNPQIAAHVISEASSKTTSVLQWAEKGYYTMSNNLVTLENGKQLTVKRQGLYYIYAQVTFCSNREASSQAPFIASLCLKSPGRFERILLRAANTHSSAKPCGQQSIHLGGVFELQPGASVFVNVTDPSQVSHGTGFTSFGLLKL
# MEASUREMENT PROTOCOL: cell-based or functional assay
MEASURED METRIC: hIZCD40L-driven Human B Cell Proliferation EC50 (nM)
Express the result in nM but write the number alone.

Some binders with known hIZCD40L-driven Human B Cell Proliferation EC50 results, for comparison:
- BINDER: "BMS2h-503 (other) VL: DIQMTQSPSSLSASVGDRVTITCRASHHIQRYLSWYQQKPGKAPKLLILWGSQLQSGVPSRFSGSGSGTDFTLTISSLQPEDFATYYCGQWWAPPPTFGQGTKVEIKR"
  RECORDED VALUE: 4200
- BINDER: "BMS2h-492-7 (other) VL: DIQMTQSPSSLSASVGDRVTITCRASQAIEHNLEWYQQKPGKAPKLLIYDASMLQSGVPSRFSGSGSGTDFTLTISSLQPEDFATYYCQQYDAYPPTFGQGTKVEIKR"
  RECORDED VALUE: 1900
- BINDER: "BMS2h-503-1 (other) VL: DIQMTQSPSSLSASVGDRVTITCRASHHIQRYLSWYQQKPGKAPKLLILWGSQLQSGVPSRFSGSGSGTDFTLTISSLQPEDFATYYCGQWWAPPQTFGQGTKVEIKR"
  RECORDED VALUE: 24
- BINDER: "BMS2h-116-1312 (other) VL: DIQMTQSPSSLSASVGDRVTITCRASQPIGPDLLWYQQKPGKAPKLLIYQTSILRSGVPSRFSGSGSETDFTLTISNLQPEDLATYYCQQYWAFPVTFGKGTKVVIKR"
  RECORDED VALUE: 23

Now examine the next entry.
## Input Could you share which hIZCD40L-driven Human B Cell Proliferation EC50 value was measured for BMS2h-494-6 (other) VL: DIQMTQSPPSLSASVGDRVTITCRASQSIDKDLEWYQQKPGKAPRLLIYSSSWLQRGVPSRFSGSGSGTDFTLTISSLQPEDFATYHCQQYFQYPPTFGQGTKVEIKR ?
## Output 2000
